system: NAD-dependent malic enzyme (Escherichia coli K-12, maeA)
experiment: Inhibition of Escherichia coli K-12 recombinant NAD-dependent malic enzyme by Dixon plot
assay endpoint: Ki (µM)

>>> number("COc1ccc(-c2cn([C@@H]3O[C@H](COP(=O)(O)O)[C@@H](O)[C@H]3O)nn2)cc1")
57

Origin of the recorded values: BindingDB's records for doi:10.1016/j.bmcl.2011.01.107
